Taken from ChEMBL document CHEMBL5120844.

target-under-test: Glucocorticoid receptor (Homo sapiens, UniProt P04150)
Sequence (P04150 whole entry, the tested form may be a part): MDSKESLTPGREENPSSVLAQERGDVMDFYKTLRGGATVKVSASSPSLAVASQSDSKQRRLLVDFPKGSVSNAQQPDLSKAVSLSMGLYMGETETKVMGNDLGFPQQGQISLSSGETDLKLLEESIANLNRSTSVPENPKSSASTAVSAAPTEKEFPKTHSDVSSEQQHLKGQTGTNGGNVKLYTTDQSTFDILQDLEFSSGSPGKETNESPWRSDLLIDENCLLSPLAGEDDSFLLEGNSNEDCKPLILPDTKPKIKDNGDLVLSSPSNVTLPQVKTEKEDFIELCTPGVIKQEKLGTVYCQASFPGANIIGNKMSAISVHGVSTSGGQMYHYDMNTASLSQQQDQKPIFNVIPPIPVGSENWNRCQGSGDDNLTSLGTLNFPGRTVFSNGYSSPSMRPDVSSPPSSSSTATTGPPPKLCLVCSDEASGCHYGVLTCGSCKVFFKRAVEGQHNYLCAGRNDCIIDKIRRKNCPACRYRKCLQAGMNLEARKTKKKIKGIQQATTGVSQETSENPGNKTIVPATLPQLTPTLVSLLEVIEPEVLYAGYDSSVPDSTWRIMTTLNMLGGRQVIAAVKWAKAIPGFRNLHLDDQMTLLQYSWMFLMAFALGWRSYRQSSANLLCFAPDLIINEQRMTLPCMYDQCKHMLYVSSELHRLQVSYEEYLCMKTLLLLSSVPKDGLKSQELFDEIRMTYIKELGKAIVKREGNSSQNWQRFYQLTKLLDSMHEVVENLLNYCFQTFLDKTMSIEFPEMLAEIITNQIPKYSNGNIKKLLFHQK
method-summary: Binding affinity to recombinant human GST-tagged glucocorticoid receptor ligand binding domain by TR-FRET assay relative to control
assay-endpoint: pIC50
Scale: negative log10 of molar concentration, which is what pIC50 denotes.

Reported pIC50 of CC(NC(=O)c1ccc(Cn2c(=S)[nH]c3ccsc3c2=O)cc1)c1ccccc1 (stereo unspecified) : 5.69

====

method-summary: Inhibition of NF-kappaB transcriptional activity in human HeLa cells transfected with NF-kappaB-Luc by dual-luciferase reporter gene assay
Assay type: cell-based
Recorded pIC50 for the following compounds
Scale: negative log10 of molar concentration, which is what pIC50 denotes.

Guide cases for pIC50, answers given:
INSERT INTO results (compound, assay_endpoint, endpoint_result) VALUES
  ('O=C(Nc1ccccc1C(=O)NCc1cccnc1)c1ccc(CN2CCc3ccccc3C2)cc1', 'pIC50', 5.18),
  ('COc1ccc(CNC(=O)c2ccc(Cn3c(=S)[nH]c4ccsc4c3=O)cc2)cc1', 'pIC50', 5.13);

Reported pIC50 of CC(NC(=O)c1ccc(/C=C2/Sc3ccccc3NC2=O)cc1)c1ccc2c(c1)OCCO2 (centres undefined) : 4.74

Reported pIC50 of CC(NC(=O)c1ccc(Cn2c(=S)[nH]c3ccsc3c2=O)cc1)c1ccc2c(c1)OCO2 (centres undefined) : 5.29

Reported pIC50 of C[C@H](NC(=O)c1ccc(Cn2c(=S)[nH]c3ccsc3c2=O)cc1)c1ccccc1 : 5.72

Reported pIC50 of CC(NC(=O)c1ccc(Cn2c(=S)[nH]c3ccsc3c2=O)cc1)c1ccccc1 (centres undefined) : 5.63

Reported pIC50 of COc1ccccc1Nc1nc(C(=O)N(CC(=O)NC2CC2)Cc2ccccc2)cs1 : 5.97

Reported pIC50 of O=C(c1ccc(Cn2c(=S)[nH]c3ccsc3c2=O)cc1)N1CCc2ccccc2C1 : 6.00

Reported pIC50 of C[C@@H](NC(=O)c1ccc(Cn2c(=S)[nH]c3ccsc3c2=O)cc1)c1ccccc1 : 5.42
